target: recombinant human 11β-HSD type 1 enzyme (Homo sapiens); assay: 11β-HSD Type 1 Enzyme Assay (NADPH fluorescence); conditions: three hour incubation at room temperature, read-out: Human 11-βHSD1 IC50
Sequence (P28845 whole entry): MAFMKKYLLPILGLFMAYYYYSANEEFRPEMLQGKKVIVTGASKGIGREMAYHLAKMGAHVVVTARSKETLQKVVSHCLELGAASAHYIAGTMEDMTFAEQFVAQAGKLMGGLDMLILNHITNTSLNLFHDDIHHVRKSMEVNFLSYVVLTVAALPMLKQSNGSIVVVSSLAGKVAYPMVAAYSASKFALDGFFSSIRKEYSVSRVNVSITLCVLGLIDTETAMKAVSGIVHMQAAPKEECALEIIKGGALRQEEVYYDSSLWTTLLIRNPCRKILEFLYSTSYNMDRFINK
OBSERVABLE: IC50 (nM)

>>> df
                                   compound                             system_tested  recorded_value
0  O=C1[C@H](Cc2c(Cl)cc(OCc3ccccc3)cc2Cl)CCN1[C@H]1CCc2n[nH]cc2C1 [Example 35]  recombinant human 11β-HSD type 1 enzyme (Homo sapiens)             243

1. COc1cc(Cl)c(CC2CCN(C3CCc4n[nH]cc4C3)C2=O)c(Cl)c1 (racemic) [Example 1]
2. O=C1[C@H](Cc2c(Cl)cc(-c3ccc(F)cc3)cc2Cl)CCN1[C@H]1CCc2n[nH]cc2C1 [Example 36]
3. COc1cc(Cl)c(CC2CCN(C3CCc4n[nH]cc4C3)C2=O)c(Cl)c1 (single isomer, unassigned) [Example 7]
# rank by IC50, ascending (min first) Dear reader, please state the labels in the requested order.
3, 1, 2
(3: 37 nM, 1: 100 nM, 2: 276 nM)

The reported measurements were obtained from patent US7981918B2.
